Test system: pERK in PSN1 cells
ASSAY_EXPLANATION: Inhibition of KRas phosphorylation of ERK (Cisbio HTRF pERK assay)
PARTICULARS: Homo sapiens, PSN1, 3 h, read-out: Inhibition (HTRF IC50) of KRas-mediated Phosphorylation of ERK, PSN1
I'd be grateful if you could share measured IC50 for these entries.
One number for each entry, in µM.

Consider the following illustrative entries.
- COMPOUND: "CCc1c(F)ccc2cc(O)cc(-c3ncc4c(N5CCC[C@@](C)(O)C5)nc(OC[C@]56CCCN5[C@H](CO)CC6)nc4c3F)c12"
  MEASURED_METRIC: "IC50"
  VALUE_UNITS: "µM"
  MEAS_VALUE: 2.53
- COMPOUND: "O=S1(=O)NCC2(CCCN(c3nc(OC[C@@]45CCCN4C[C@H](F)C5)nc4c(F)c(-c5cc(O)cc6ccc(F)c(Br)c56)ncc34)C2)N1 (stereo partly drawn)"
  MEASURED_METRIC: "IC50"
  VALUE_UNITS: "µM"
  MEAS_VALUE: 0.146
- COMPOUND: "CCc1c(F)ccc2cc(O)cc(-c3ncc4c(N5CCCCC6(C5)NC(=O)NC6=O)nc(OC[C@@]56CCCN5C[C@H](F)C6)nc4c3F)c12 (stereo partly drawn)"
  MEASURED_METRIC: "IC50"
  VALUE_UNITS: "µM"
  MEAS_VALUE: 2.88

Take each entry in turn and give its IC50.
1. CCc1c(F)ccc2cc(O)cc(-c3ncc4c(N5CC[C@@H](C)[C@@H](O)C5)nc(OC[C@@]56CCCN5C[C@H](F)C6)nc4c3F)c12
2. CCc1c(F)ccc2cc(O)cc(-c3ncc4c(N5CCCC6(CNS(=O)(=O)N6)C5)nc(OC[C@@]56CCCN5C[C@H](F)C6)nc4c3F)c12 (stereo partly drawn)
3. CCc1c(F)ccc2cc(O)cc(-c3ncc4c(N5C[C@@H](CO)C[C@](C)(O)C5)nc(OC[C@@]56CCCN5C[C@H](F)C6)nc4c3F)c12 (mixture of isomers)

// result
1: 5.54; 2: 0.305; 3: 6.69

====

TARGET_OF_ASSAY: KRas G12R (Homo sapiens, UniProt P01116, G12R)
Sequence (P01116 1-169 isoform P01116-2 G12R): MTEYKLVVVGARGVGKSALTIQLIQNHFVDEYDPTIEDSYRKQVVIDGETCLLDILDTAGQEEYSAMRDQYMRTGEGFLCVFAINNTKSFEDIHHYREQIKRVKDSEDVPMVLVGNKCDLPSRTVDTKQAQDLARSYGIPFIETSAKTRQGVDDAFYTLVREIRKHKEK
ASSAY_EXPLANATION: biochemical
pIC50: −log10 of the molar value.
Kind request: treat 6 as inclusive, so pIC50 at 6 or higher is True, anything lower is False.

Illustrative cases are given below, each with its answer.
- COMPOUND: "Cc1cccc2cccc(-c3ncc4c(N5CCCC(c6nc[nH]n6)C5)nc(OCC56CCCN5CCC6)nc4c3F)c12 (stereo not shown)"
  ANSWER_LABEL: "False"
- COMPOUND: "CCc1c(F)ccc2cc(O)cc(-c3ncc4c(N5CCCc6nn(C(=O)NC(C)C)cc6C5)nc(OC[C@@]56CCCN5C[C@H](F)C6)nc4c3F)c12"
  ANSWER_LABEL: "True"
- COMPOUND: "OC1CCC12CCCN(c1nc(OCC34CCCN3CCC4)nc3c(F)c(-c4cccc5cccc(F)c45)ncc13)C2 (stereo not shown)"
  ANSWER_LABEL: "False"
- COMPOUND: "Fc1c(-c2cccc3cccc(F)c23)ncc2c(NCCCc3cccnc3)nc(OCC34CCCN3CCC4)nc12"
  ANSWER_LABEL: "False"
- COMPOUND: "Cc1ccc2[nH]ncc2c1-c1ncc2c(N3CCCC(C)(O)C3)nc(OCC34CCCN3CCC4)nc2c1F (stereo not shown)"
  ANSWER_LABEL: "False"

Consider the additional compound presented here.
// query Is it the case that O=C1CC2(CCCN(c3nc(OCC45CCCN4CCC5)nc4c(F)c(-c5cc(O)cc(Cl)c5C5CC5)ncc34)C2)N1 (stereo not shown) has pIC50 reaching or exceeding 6?
// result True

====

TARGET_OF_ASSAY: KRas G12S (Homo sapiens, UniProt P01116, G12S)
Sequence (P01116 1-169 isoform P01116-2 G12S): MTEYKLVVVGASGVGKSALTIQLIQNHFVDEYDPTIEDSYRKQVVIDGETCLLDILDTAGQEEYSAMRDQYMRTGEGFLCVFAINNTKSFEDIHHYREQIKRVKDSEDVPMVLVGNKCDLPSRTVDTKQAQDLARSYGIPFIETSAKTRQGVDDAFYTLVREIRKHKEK
ASSAY_EXPLANATION: biochemical
pIC50: −log10 of the molar value.
Criterion: pIC50 meeting or surpassing 5. Met: 1 (yes). Not met: 0 (no).

These recorded examples may help you get a feel for the data.
- COMPOUND: "NS(=O)(=O)NC1CCCN(c2nc(OCC34CCCN3CCC4)nc3c(F)c(-c4cccc5cccc(F)c45)ncc23)C1 (stereo not drawn)"
  ANSWER_LABEL: "1 (yes)"
- COMPOUND: "Fc1c(-c2cccc3cccc(F)c23)ncc2c(OCCCc3cccnc3)nc(OCC34CCCN3CCC4)nc12"
  ANSWER_LABEL: "0 (no)"
- COMPOUND: "O=C1CC2(CCCN(c3nc(OCC45CCCN4CCC5)nc4c(F)c(-c5cccc6cccc(F)c56)ncc34)C2)C(=O)N1 (stereo not drawn)"
  ANSWER_LABEL: "1 (yes)"
- COMPOUND: "C#Cc1c(F)ccc2cc(O)cc(-c3ncc4c(N5CCCC6(CNC(=O)C6)C5)nc(OC[C@@]56CCCN5C[C@H](F)C6)nc4c3F)c12 (stereo partly drawn)"
  ANSWER_LABEL: "1 (yes)"
- COMPOUND: "Fc1c(-c2cccc3cccc(F)c23)ncc2c(NCc3cnn4cccnc34)nc(OCC34CCCN3CCC4)nc12"
  ANSWER_LABEL: "0 (no)"
- COMPOUND: "CS(=O)(=O)C1CCCCN(c2nc(OCC34CCCN3CCC4)nc3c(F)c(-c4cccc5cccc(F)c45)ncc23)C1 (stereo not drawn)"
  ANSWER_LABEL: "1 (yes)"

// query Please tell me: is the compound OCc1cc2n(n1)CCCN(c1nc(OCC34CCCN3CCC4)nc3c(F)c(-c4cccc5cccc(F)c45)ncc13)C2 at or over 5 in terms of pIC50?
// result 1 (yes)

// query Could you tell me if the measured pIC50 of NC(=O)NC1CCN(c2nc(OCC34CCCN3CCC4)nc3c(F)c(-c4cccc5cccc(F)c45)ncc23)CC1 reaches 5 or more?
// result 1 (yes)

// query Could you verify whether the entry Cc1cccc2cccc(-c3ncc4c(N5CCCC6(CC(=O)N6)C5)nc(OCC56CCCN5CCC6)nc4c3F)c12 (stereo not drawn) shows pIC50 of no less than 5?
// result 1 (yes)

====

Give IC50 for every item shown.
TARGET_OF_ASSAY: KRas G12S (Homo sapiens, UniProt P01116, G12S);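 further: TR-FRET displacement binding to KRas, read after one hour incubation at room temperature, IC50 from four-parameter fit of percent of control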
ASSAY_EXPLANATION: biochemical
Give bare numbers, in µM.

- COMPOUND: "C[C@@H]1C[C@@H](O)CN(c2nc(OCC34CCCN3CCC4)nc3c(F)c(-c4cccc5cccc(F)c45)ncc23)C1"
  TARGET_OF_ASSAY: "KRas G12S (Homo sapiens, UniProt P01116, G12S)"
  VALUE_UNITS: "µM"
  MEAS_VALUE: 31

Below is a list of compounds. For each, state its recorded IC50.
1. O=C1NC(=O)C2(CCCN(c3nc(OCC45CCCN4CCC5)nc4c(F)c(-c5cccc6cccc(CO)c56)ncc34)C2)N1 (stereo not shown)
2. Cc1ccc2[nH]ncc2c1-c1ncc2c(N3CCCC(C)(O)C3)nc(OCC34CCCN3CCC4)nc2c1F (stereo not shown)
3. Cn1cc(CNc2nc(OCC34CCCN3CCC4)nc3c(F)c(-c4cccc5cccc(F)c45)ncc23)ccc1=O

// result
1. 0.587
2. 7.72
3. 4.24

====

TARGET_OF_ASSAY: KRas G12R (Homo sapiens, UniProt P01116, G12R);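 further: TR-FRET displacement assay of compound binding to KRas, read after one hour at room temperature, potency from a four-parameter fit of percent-of-control values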
ASSAY_EXPLANATION: biochemical
MEASURED_METRIC: IC50 (nM)
Give bare numbers, in nM.

These solved cases illustrate the format of a correct answer.
- COMPOUND: "C#Cc1c(F)ccc2cccc(-c3ncc4c(N5CCCC6(CNC(=O)C6)C5)nc(OC[C@@]56CCCN5C[C@H](F)C6)nc4c3F)c12 (stereo partly drawn)"
  MEAS_VALUE: 24
- COMPOUND: "C#Cc1cccc2cccc(-c3ncc4c(N5CCCC(C)(O)C5)nc(OCC56CCCN5CCC6)nc4c3F)c12 (stereo not drawn)"
  MEAS_VALUE: 410
- COMPOUND: "CNC(=O)c1cc2n(n1)CCCN(c1nc(OCC34CCCN3CCC4)nc3c(F)c(-c4cccc5cccc(F)c45)ncc13)C2"
  MEAS_VALUE: 769

Now consider the entry below.
// field: IC50; key: CCc1c(F)ccc2cc(O)cc(-c3ncc4c(N5C[C@@H](C)C[C@@H](O)C5)nc(OC[C@@]56CCCN5C[C@H](F)C6)nc4c3F)c12 ; value = 4

====

Exercise: for every item that follows, state its recorded pIC50.
TARGET_OF_ASSAY: KRas G12D (Homo sapiens, UniProt P01116, G12D);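 further: TR-FRET displacement binding assay on KRas, read after a one-hour incubation at room temperature, IC50 fitted from percent-of-control values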
Sequence (P01116 1-169 isoform P01116-2 G12D): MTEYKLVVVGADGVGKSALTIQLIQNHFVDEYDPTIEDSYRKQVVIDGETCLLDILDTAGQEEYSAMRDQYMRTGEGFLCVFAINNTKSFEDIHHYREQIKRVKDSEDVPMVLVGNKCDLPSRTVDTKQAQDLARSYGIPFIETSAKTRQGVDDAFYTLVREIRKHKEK
ASSAY_EXPLANATION: biochemical
Answers are plain numbers, as −log10 of the molar value.

Guide cases for pIC50, answers given:
- COMPOUND: "Fc1c(-c2cccc3cccc(F)c23)ncc2c(NCCc3c[nH]nn3)nc(OCC34CCCN3CCC4)nc12"
  MEAS_VALUE: 4.51
- COMPOUND: "O=C1NC(=O)C2(CCCN(c3nc(OCC45CCCN4CCC5)nc4c(F)c(-c5cccc6cccc(C(F)F)c56)ncc34)C2)N1 (stereo not drawn)"
  MEAS_VALUE: 6.01

Please examine the following record next.
pIC50 measured on Cc1cccc2cccc(-c3ncc4c(N5CCCC6(CNC(=O)N6)C5)nc(OCC56CCCN5CCC6)nc4c3F)c12 (stereo not drawn) = 6.98
